# Species: Homo sapiens
# PROTOCOL_DESCRIPTION: Liver toxicity in human assessed as induction of drug-induced liver injury by measuring severity class index; also: key of the grades not given here
Measured DILI_severity_class of individual entries
Reply: number alone, nothing else.

- MOLECULE: "Oc1ccc2c(c1)[C@@]13CCCC[C@@]1(O)[C@@H](C2)N(CC1CCC1)CC3"
  DILI_severity_class: 0
- MOLECULE: "CCOC(=O)[C@H](CCc1ccccc1)N[C@@H](C)C(=O)N1[C@H](C(=O)O)C[C@@H]2CCC[C@@H]21"
  DILI_severity_class: 7
- MOLECULE: "CCCN(CCC)CCc1cccc2c1CC(=O)N2"
  DILI_severity_class: 4

Field: next molecule
Return DILI_severity_class (reported value) for this molecule: CC(C)(C)NC(=O)[C@H]1CC[C@H]2[C@@H]3CC[C@H]4NC(=O)C=C[C@]4(C)[C@H]3CC[C@]12C [FINASTERIDE]
0
